Test system: EKVX NSCLC
method-notes: NCI-60 one-dose screen, 48 h
condition-label: 10 µM
The panel holds about 83,000 compounds, 20% with a hit somewhere; the sample as a whole holds those more often. Active and inactive are the calls of the source. Rule for the calls: active = growth percent below 10; inactive = the rest.
Field 'call' accepts Y (active), N (inactive)

## Task Recorded test outcome, item Cc1cccc([N+](=O)[O-])c1Cl
## Result N

## Task Assay result, entry CC(=O)Nc1cccc(Cl)c1C — outcome?
## Result N

## Task Lab log entry: CN(C)c1ccc(C(c2ccc(O)cc2)c2ccc(N(C)C)cc2)cc1 — outcome as called in the assay?
## Result N

## Task Tell me the recorded outcome of this test for Nc1ccc(N=Nc2ccc(O)cc2)c(N)n1 .
## Result N

## Task Any idea what this test logged for N#Cc1c(N)sc(=S)c2c1CCCC2 ?
## Result N

## Task Tell me the assay call for CCCC(=O)c1cc(C)ccc1OC please.
## Result N

## Task Please indicate how the test categorized O=C1c2ccccc2C(=O)c2c1ccc(C(=O)O)c2[N+](=O)[O-] .
## Result N

## Task What call does the record list for Nc1ncnc2[nH]ncc12 ?
## Result N

## Task // param item: CCOC(=O)c1coc(C(=O)OCC)c1C(=O)OCC ; yields the recorded call
## Result N

## Task // outcome(item) with item = Oc1ccccc1O
## Result N

## Task Status in this test for CN(C)CCN(C)CC(C)(C)C(=O)/C=C/c1ccc(Cl)cc1 ?
## Result Y

## Task # fetch the recorded call for CC(=O)OC(C(=O)O)c1ccccc1 (stereo not given) here
## Result N

## Task Look up the recorded call for O=C(Nc1cc(-c2ccccc2)[nH]n1)c1ccc(Cl)cc1 in this test.
## Result N

## Task Could you kindly confirm the outcome this assay logged for O=C(O)c1ccnc(Br)c1 ?
## Result N

## Task What did the test return for CC(C)OC(C(=O)O)c1ccccc1 (stereo not given) ?
## Result N
